Origin of values: patent US20260125454A1

- study_system: T1, Biotin-1-19 polypeptide (human, disulfide 2-7; not fully specified (N-terminus); printed as Biotin-Linker(G5)-ACDTATCVTHRLAGLLSRS; ends not checked; also: biotin, position not given here)
- T1 construct: also called fragment CGRP (1-19); truncated (1-19) CGRP
- T1 peptide: ACDTATCVTHRLAGLLSRS
- assay_comment: ELISA, transfection supernatant, biotin-CGRP(1-19) on streptavidin; also: test concentration or dose not given here
Bridges are numbered along the chain shown (N, C = ends). Where no end group is shown, it is not given here.
measurement_type: OD value (OD)
Report the figure in OD without appending any unit label.

1. C232 (antibody, V domains shown, 3C1-HC + 1A2-LC2; chimeric, human constant regions) VH: EVQLQQSGPELVKPGASMKISCKASGYSFTGYTMNWVKQSHGNNLEWIGLINPYIGNTHYNQKFKDKATFTVDRSSSTAYMALLSLTSEDSAVYYCARELDSGFDYWGQGTTLTVSS VL: DIVLTQSPASLAVSLGQRATISCKASQNIDYDGYAYLNWYQQKPGQPPKVLIYSVFNLESGIPARFSGSGSGTDFTLNIHPVEEEDAATYYCQQSNEFPYTFGGGTKLEVK : 3.15
2. C245 (antibody, V domains shown, 3C1-HC + 3C1-LC; chimeric, human constant regions; also called chimeric antibody C245) VH: EVQLQQSGPELVKPGASMKISCKASGYSFTGYTMNWVKQSHGNNLEWIGLINPYIGNTHYNQKFKDKATFTVDRSSSTAYMALLSLTSEDSAVYYCARELDSGFDYWGQGTTLTVSS VL: DVLMTQTPLSLPVSLGDQASLSCRSSQNIVHSNGDTYLEWYLQKPGQSPKLLIYKVSNRFSGVPDRFSGSGSGTDFTLKISRVEAEDLGVYYCYQGSHVPWTFGGGTKLEIK : 2.51
3. C246 (antibody, V domains shown, 3C1-HC + 3E5-LC; chimeric, human constant regions) VH: EVQLQQSGPELVKPGASMKISCKASGYSFTGYTMNWVKQSHGNNLEWIGLINPYIGNTHYNQKFKDKATFTVDRSSSTAYMALLSLTSEDSAVYYCARELDSGFDYWGQGTTLTVSS VL: DIVLTQSPASLAVSLGQRATISCKASQNIDYDGYTYLNWYQQKPGQPPKVLIYSIFNLESGIPARFSGSGSGTDFTLNIHPVEEEDAATYYCQQSNEVPYTFGGGTKLEIK : 0.91

Shift focus to the following entry.
[Q] Answer with reported OD value of C235 (antibody, V domains shown, 3C1-HC + 1F5-LC1; chimeric, human constant regions) VH: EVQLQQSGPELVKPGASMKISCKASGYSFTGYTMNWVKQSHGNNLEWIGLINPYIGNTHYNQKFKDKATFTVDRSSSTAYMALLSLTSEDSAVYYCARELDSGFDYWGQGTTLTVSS VL: DIVLTQSPASLAVSLGQRATISCKASQNIDFDGYAYMNWYQHKPGQPPRVLIYSVFNLESGIPARFSGSGSGTDFTLNIHPVEEEDAATYYCQQSHEVPYTFGGGTNLEIK
[A] 2.84
